Below, each entry is listed with its recorded inhibition.
TARGET_ENTITY: Muscarinic acetylcholine receptor M4 (Homo sapiens) (UniProt P08173)
Sequence (P08173 whole entry, looked up): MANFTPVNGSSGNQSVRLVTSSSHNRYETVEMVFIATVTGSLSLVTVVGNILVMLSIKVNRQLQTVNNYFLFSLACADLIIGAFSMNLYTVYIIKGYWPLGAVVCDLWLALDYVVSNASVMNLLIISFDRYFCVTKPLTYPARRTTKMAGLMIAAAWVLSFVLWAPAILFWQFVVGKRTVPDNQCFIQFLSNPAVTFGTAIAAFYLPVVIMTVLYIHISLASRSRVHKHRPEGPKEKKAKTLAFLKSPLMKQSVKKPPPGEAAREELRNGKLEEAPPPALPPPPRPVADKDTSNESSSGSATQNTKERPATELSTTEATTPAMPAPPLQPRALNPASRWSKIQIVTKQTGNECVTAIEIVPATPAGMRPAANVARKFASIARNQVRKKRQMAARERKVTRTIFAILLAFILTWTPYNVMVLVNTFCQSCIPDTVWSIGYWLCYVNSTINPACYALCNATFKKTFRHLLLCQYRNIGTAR
ASSAY_NAME: human M4 muscarinic receptor antagonists, primary screen, CHO cells, Fluo-8 calcium fluorescence (AID 624125);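 note: 0% = acetylcholine EC80 with DMSO and 100% = DMSO without agonist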
RUN_PARAMETERS: CHO-hM4 cells, ACh EC80, Fluo-8 calcium fluorescence; at 3 µM; hits give high values
Screen size: about 360,000 compounds; about 2,600 (0.72%) were called active. The sample as a whole holds a higher share of actives than the screen did.
ATTRIBUTE_MEASURED: inhibition (%)

>  <COMPOUND>
COC(=O)c1cc(S(=O)(=O)N2CCC(C(N)=O)CC2)oc1C

>  <TEST_VALUE>
-3.75

$$$$
>  <COMPOUND>
CCN(CC(=O)NCc1cccs1)S(=O)(=O)c1ccc(NC(C)=O)cc1

>  <TEST_VALUE>
16.2

$$$$
>  <COMPOUND>
CCOc1ccccc1NC(=S)C(=C([O-])c1ccc2c(c1)OCCO2)[n+]1ccc(CC)cc1

>  <TEST_VALUE>
-1.01

$$$$
>  <COMPOUND>
Cc1ccc(CN2CCN(Cc3ccc(OCCO)cc3)CC2CCO)o1 (centres undefined)

>  <TEST_VALUE>
2.78

$$$$
>  <COMPOUND>
O=C1/C(=C\c2ccc([N+](=O)[O-])cc2)CS(=O)(=O)C/C1=C/c1ccc([N+](=O)[O-])cc1

>  <TEST_VALUE>
26.7

$$$$
>  <COMPOUND>
CCS(=O)(=O)N1CCCC(C(=O)NCCCN(C)Cc2ccccc2)C1 (centres undefined)

>  <TEST_VALUE>
6.16

$$$$
>  <COMPOUND>
COc1ccccc1CSc1ncc(-c2ccc([N+](=O)[O-])cc2)[nH]1

>  <TEST_VALUE>
-1.68

$$$$
>  <COMPOUND>
OCCC1CN(Cc2ccc3nsnc3c2)CCN1C1CCCCC1 (centres undefined)

>  <TEST_VALUE>
26.8

$$$$
>  <COMPOUND>
CC(C)CNC(=S)NC(=O)c1ccc(Cl)cc1

>  <TEST_VALUE>
-0.83

$$$$
>  <COMPOUND>
Cc1ccc(N(Cc2ccc(C(=O)Nc3ccccc3C(=O)NCc3ccco3)cc2)S(C)(=O)=O)cc1C

>  <TEST_VALUE>
39.7

$$$$
>  <COMPOUND>
Fc1ccccc1COc1ccccc1CNCc1ccncc1

>  <TEST_VALUE>
-4.74

$$$$
>  <COMPOUND>
O=C(C1CCN(CC2CCCCC2)CC1)N1CCCC1

>  <TEST_VALUE>
-6.1

$$$$
>  <COMPOUND>
O=[N+]([O-])c1cc(S(=O)(=O)CCCN2CCOCC2)ccc1F

>  <TEST_VALUE>
-17.3

$$$$
>  <COMPOUND>
O=C1CC[C@@H](C(=O)N2CSC[C@@H]2C(=O)Nc2ccc(C(F)(F)F)cc2)N1

>  <TEST_VALUE>
-9.06

$$$$
>  <COMPOUND>
Cc1cc(OCCN2CCCC2)ccc1C(C)C

>  <TEST_VALUE>
-0.72

$$$$
>  <COMPOUND>
COc1ccc(S(=O)(=O)N2CCCC(C(=O)N3CCN(C)CC3)C2)cc1C (centres undefined)

>  <TEST_VALUE>
-3.22

$$$$
>  <COMPOUND>
Cc1ccc(C(=O)NC(=S)Nc2ccc3[nH]c(=O)[nH]c3c2)cc1C

>  <TEST_VALUE>
-8.35

$$$$
>  <COMPOUND>
O=C(CN1CCCCCC1)N1c2ccccc2Sc2ccc(C(F)(F)F)cc21

>  <TEST_VALUE>
98

$$$$
>  <COMPOUND>
COc1cccc(CNC(=O)CCC2CCCN(C(=O)c3cc(C)[nH]n3)C2)c1 (centres undefined)

>  <TEST_VALUE>
-0.4

$$$$
>  <COMPOUND>
COc1ccc(CCN2C(=O)N(c3ccc(OC)cc3)C(=O)C2CC(=O)Nc2ccc(OC)cc2)cc1 (centres undefined)

>  <TEST_VALUE>
-16.8

$$$$
>  <COMPOUND>
Cc1cc(OCCN2CCCC2)cc(C(C)C)c1

>  <TEST_VALUE>
33

$$$$
>  <COMPOUND>
O=C(NCc1ccc2c(c1)OCO2)C1CCCN(S(=O)(=O)c2cccs2)C1 (centres undefined)

>  <TEST_VALUE>
-10.7

$$$$
>  <COMPOUND>
O=C(NCC(c1cccs1)N1CCOCC1)c1cc(Cl)ccc1[N+](=O)[O-] (centres undefined)

>  <TEST_VALUE>
-29.6

$$$$
>  <COMPOUND>
Cn1cnnc1Sc1ccc(CN2CCN(C3CCCC3)C(CCO)C2)o1 (centres undefined)

>  <TEST_VALUE>
42.6

$$$$
>  <COMPOUND>
O=C(CSCc1ccc([N+](=O)[O-])cc1)Nc1cccc(C(=O)Nc2ccccc2C(=O)O)c1

>  <TEST_VALUE>
7.83

$$$$
>  <COMPOUND>
CC1CCc2sc(C(=O)N/N=C/C3CCCCC3)cc2C1 (centres undefined)

>  <TEST_VALUE>
-5.14

$$$$
>  <COMPOUND>
CN(CC#CCC(c1ccccc1)c1ccccc1)C(C)(C)C

>  <TEST_VALUE>
78.5

$$$$
>  <COMPOUND>
CCCCN(C)c1ccc([N+](=O)[O-])cc1

>  <TEST_VALUE>
12.1

$$$$
>  <COMPOUND>
CC(=O)N1CCCc2cc(S(=O)(=O)N3CCCC(C(=O)N4CCN(c5cccc(Cl)c5)CC4)C3)ccc21 (centres undefined)

>  <TEST_VALUE>
43.8

$$$$
>  <COMPOUND>
Nc1nc(NCc2ccccc2)n(-c2ccccc2)n1

>  <TEST_VALUE>
-15.7

$$$$
>  <COMPOUND>
c1ccc2c(c1)CSc1sccc1C2=C1CCNCC1

>  <TEST_VALUE>
97.6

$$$$
>  <COMPOUND>
Cc1ccc(S(=O)(=O)N2CCCC(C(=O)N3CCN(C)CC3)C2)cc1 (centres undefined)

>  <TEST_VALUE>
11.1

$$$$
>  <COMPOUND>
COc1cccc2c1OCC(CN1CCN(C3CCCCC3)C(CCO)C1)=C2 (centres undefined)

>  <TEST_VALUE>
26.6

$$$$
>  <COMPOUND>
CN(C)Cc1ccccc1C1(O)c2ccccc2CSc2ccccc21 (centres undefined)

>  <TEST_VALUE>
22.2

$$$$
>  <COMPOUND>
CN1/C(=C\C=C2\N=C(c3ccc(F)cc3)OC2=O)C(C)(C)c2ccccc21

>  <TEST_VALUE>
50.7

$$$$
>  <COMPOUND>
CCC1C=C(c2ccccc2)C=CN=C1N(CC)CC (centres undefined)

>  <TEST_VALUE>
35

$$$$
>  <COMPOUND>
CN(CCN1CCOCC1)Cc1nc(-c2ccc3c(c2)OCO3)no1

>  <TEST_VALUE>
8.12

$$$$
>  <COMPOUND>
Cc1nn(Cc2ccccc2)c(C)c1CNC(=O)c1ccc(F)c(S(=O)(=O)N2CCOCC2)c1

>  <TEST_VALUE>
-8.04

$$$$
>  <COMPOUND>
OCC1(CCc2ccccc2)CCN(Cc2ccc3nsnc3c2)CC1

>  <TEST_VALUE>
8.32

$$$$
>  <COMPOUND>
COC(=O)c1c(C)oc(C)c1S(=O)(=O)NCc1ccc(Cl)cc1

>  <TEST_VALUE>
12.7

$$$$
>  <COMPOUND>
CCOC(=O)CSc1nnc(NC(=O)C2CC(=O)N(c3ccc(F)cc3)C2)s1 (centres undefined)

>  <TEST_VALUE>
5.76

$$$$
>  <COMPOUND>
CC(C)N1CCC(N2CCN(Cc3cccnc3)CC2CCO)CC1 (centres undefined)

>  <TEST_VALUE>
-8.19

$$$$
>  <COMPOUND>
O=C1c2ccccc2C(=O)N1CCC(O)C[N+](=O)[O-] (centres undefined)

>  <TEST_VALUE>
-2.27

$$$$
>  <COMPOUND>
COc1cccc(CNCCc2c[nH]c3ccccc23)c1OCc1ccccc1F

>  <TEST_VALUE>
27.2

$$$$

Reference source for all entries: PubChem BioAssay AID624125
